measured target: UniProt:P19643
Sequence (P19643 1-520): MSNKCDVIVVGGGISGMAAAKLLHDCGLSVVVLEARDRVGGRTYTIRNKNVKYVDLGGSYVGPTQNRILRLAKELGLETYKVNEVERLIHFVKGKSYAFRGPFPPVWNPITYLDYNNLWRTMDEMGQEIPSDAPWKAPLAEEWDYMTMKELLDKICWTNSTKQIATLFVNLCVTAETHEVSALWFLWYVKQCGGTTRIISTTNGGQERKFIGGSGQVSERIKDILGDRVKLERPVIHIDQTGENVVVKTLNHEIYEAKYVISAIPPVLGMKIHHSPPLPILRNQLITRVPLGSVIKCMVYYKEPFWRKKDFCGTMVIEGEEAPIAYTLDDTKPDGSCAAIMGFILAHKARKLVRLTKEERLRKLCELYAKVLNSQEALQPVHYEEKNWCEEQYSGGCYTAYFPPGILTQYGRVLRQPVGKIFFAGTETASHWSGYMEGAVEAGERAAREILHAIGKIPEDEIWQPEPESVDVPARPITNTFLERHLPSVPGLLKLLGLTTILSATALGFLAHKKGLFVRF
readout: IC50 (nM)

The examples below pair each entry with its known result.
Recall the recorded IC50 for CC(C)/C(=C\F)CN [(E)-2-Isopropyl-3-fluoroallylamine] with UniProt:P19643 and state it.
2500

Form entry - test system: UniProt:P19643; read-out: IC50; molecule: CCCC/C(=C\F)CN [(E)-2-Butyl-3-fluoroallylamine]
2

# get_value(readout= IC50, system= UniProt:P19643) for CC(C)C/C(=C\F)CN [(E)-2-Isobutyl-3-fluoroallylamine]
30

(A) CCC(C)/C(=C\F)CN (stereo not shown) [(E)-2-sec-Butyl-3-fluoroallylamine]
(B) CCCCCC/C(=C\F)CN [(E)-2-Hexyl-3-fluoroallylamine]
(C) CCCCCCCCCCC/C(=C\F)CN [(E)-2-Undecyl-3-fluoroallylamine]
(D) CCCCCCC/C(=C\F)CN [(E)-2-Heptyl-3-fluoroallylamine]
Please list the entries, largest IC50 first. # answer = labels listed in requested order
A, C, B, D
(A: 7000 nM, C: 500 nM, B: 7 nM, D: 4.5 nM)

Value source: patent US4650907A
